Task for the reader: assign each of the following binders its reported Binding results (total of four assays).
- TARGET: HLA B*07 (human)
- EXPERIMENT DESCRIPTION: T2B7 HLA stabilisation assay, flow cytometry, 10/20/200 ug/ml, four assays
- TEST CONTEXT: scale: of 3 concentrations positive, in 2 assays
Numbers only.

BINDER	Binding results (total of four assays)
TPGLRCLNLD [WNVB7 0024]	1

Look up Binding results (total of four assays) for the entries below, preserving their order.
1. VPCRGQDELV [WNVB7 0010]
2. TPAAPSYTLK [WNVB7 0009]
3. NPMILAAGLI [WNVB7 0007]
4. VPGTKIAGML [WNVB7 0018]

1. 2
2. 2
3. 1
4. 1
